system: Caco-2; assay: Caco-2 permeability; settings: 10 μM, 2 hrs
reportedMetric: A − B Permeability Ranking

[[record]]
compound = "CNS(=O)(=O)Nc1nccc(Cc2c(C)c3ccc(Oc4ncccn4)cc3oc2=O)c1F [Reference 2]"
result = "High"

[[record]]
compound = "Cn1cnc2c(F)c(Nc3ccc(Br)cc3Cl)c(C(=O)NOCCO)cc21 [Reference 1, Selumetinib]"
result = "High"

[[record]]
compound = "CNS(=O)(=O)Nc1cccc(Cc2c(CN(C)C)c3ccc(OC(=O)N(C)C)cc3oc2=O)c1F"
result = "High"

[[record]]
compound = "CNS(=O)(=O)Nc1cccc(Cc2c(C)c3ccc(OC(=O)N(C)C)cc3oc2=O)c1F [Reference 7]"
result = "High"


Let us move to another entry and its A − B Permeability Ranking.
Recall the recorded A − B Permeability Ranking for CNC(=C[N+](=O)[O-])NCCSCc1ccc(CN(C)C)o1 with Caco-2 and state it. Low

====

molecular target: CYP450 2D6 (Homo sapiens, UniProt P10635); experiment: CYP450 Panel; settings: 10 μM; substrate dextromethorphan; in % (unit assumed)
Sequence (P10635 whole entry): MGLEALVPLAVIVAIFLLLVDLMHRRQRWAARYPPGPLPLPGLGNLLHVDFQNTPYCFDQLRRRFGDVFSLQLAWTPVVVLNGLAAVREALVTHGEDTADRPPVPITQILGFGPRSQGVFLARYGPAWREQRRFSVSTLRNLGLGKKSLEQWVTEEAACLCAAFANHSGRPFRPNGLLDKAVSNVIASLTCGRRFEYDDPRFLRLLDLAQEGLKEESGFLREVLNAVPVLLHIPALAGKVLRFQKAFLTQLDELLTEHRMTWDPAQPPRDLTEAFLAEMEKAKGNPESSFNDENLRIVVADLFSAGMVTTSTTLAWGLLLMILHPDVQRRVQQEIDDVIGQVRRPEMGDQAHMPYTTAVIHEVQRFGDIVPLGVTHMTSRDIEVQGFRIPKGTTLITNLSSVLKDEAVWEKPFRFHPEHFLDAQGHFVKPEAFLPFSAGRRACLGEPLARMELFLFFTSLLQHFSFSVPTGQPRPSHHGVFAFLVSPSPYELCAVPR
reportedMetric: CYP450 Panel 2D6
One number for each entry.

Illustrative cases are given below, each with its answer.
[[record]]
compound = "CNS(=O)(=O)Nc1cccc(Cc2c(C)c3ccc(OC(=O)N(C)C)cc3oc2=O)c1F [Reference 7]"
measurementtarget = "CYP450 2D6 (Homo sapiens, UniProt P10635)"
reportedmetric = "CYP450 Panel 2D6"
numericreadout = "−7.4"

[[record]]
compound = "CNS(=O)(=O)Nc1cccc(Cc2c(CN(C)C)c3ccc(OC(=O)N(C)C)cc3oc2=O)c1F [Compound A]"
measurementtarget = "CYP450 2D6 (Homo sapiens, UniProt P10635)"
reportedmetric = "CYP450 Panel 2D6"
numericreadout = "−3.7"


I'm hoping you can list CYP450 Panel 2D6 for every compound here, please.
1. Cn1cnc2c(F)c(Nc3ccc(Br)cc3Cl)c(C(=O)NOCCO)cc21 [Reference 1, Selumetinib]
2. CNS(=O)(=O)Nc1nccc(Cc2c(C)c3ccc(Oc4ncccn4)cc3oc2=O)c1F [Reference 2]

[5.0, 3.4]

====

target: CYP450 2B6 (Homo sapiens, UniProt P20813); experiment: CYP450 Panel; format: in vitro ADME; details: 10 μM; substrate bupropion
Sequence (P20813 whole entry): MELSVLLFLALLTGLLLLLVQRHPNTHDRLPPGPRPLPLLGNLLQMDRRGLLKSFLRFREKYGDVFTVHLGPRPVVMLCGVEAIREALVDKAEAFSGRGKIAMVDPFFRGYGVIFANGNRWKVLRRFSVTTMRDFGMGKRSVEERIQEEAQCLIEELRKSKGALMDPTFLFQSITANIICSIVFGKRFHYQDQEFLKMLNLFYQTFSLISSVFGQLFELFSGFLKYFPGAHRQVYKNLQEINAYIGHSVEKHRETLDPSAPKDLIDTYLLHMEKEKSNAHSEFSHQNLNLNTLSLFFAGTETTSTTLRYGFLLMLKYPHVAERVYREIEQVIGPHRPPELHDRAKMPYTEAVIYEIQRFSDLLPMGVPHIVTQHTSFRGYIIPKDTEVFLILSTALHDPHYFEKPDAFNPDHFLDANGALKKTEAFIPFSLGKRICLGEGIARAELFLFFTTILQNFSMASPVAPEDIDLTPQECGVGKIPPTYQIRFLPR
reportedMetric: CYP450 Panel 2B6 (%)
One number for each entry, in %.

Answered cases to consult:
[[record]]
compound = "CNS(=O)(=O)Nc1cccc(Cc2c(C)c3ccc(OC(=O)N(C)C)cc3oc2=O)c1F [Reference 7]"
measurementtarget = "CYP450 2B6 (Homo sapiens, UniProt P20813)"
reportedmetric = "CYP450 Panel 2B6"
numericreadout = 28.5

[[record]]
compound = "Cn1cnc2c(F)c(Nc3ccc(Br)cc3Cl)c(C(=O)NOCCO)cc21 [Reference 1, Selumetinib]"
measurementtarget = "CYP450 2B6 (Homo sapiens, UniProt P20813)"
reportedmetric = "CYP450 Panel 2B6"
numericreadout = 30.2


Hi! What's the reported CYP450 Panel 2B6 for CNS(=O)(=O)Nc1cccc(Cc2c(CN(C)C)c3ccc(OC(=O)N(C)C)cc3oc2=O)c1F on CYP450 2B6 (Homo sapiens, UniProt P20813)? 14.8

====

target: UniProt:P10632; assay: CYP450 Panel; assay type: in vitro ADME; settings: 10 μM; substrate amodiaquine
Sequence (P10632 whole entry): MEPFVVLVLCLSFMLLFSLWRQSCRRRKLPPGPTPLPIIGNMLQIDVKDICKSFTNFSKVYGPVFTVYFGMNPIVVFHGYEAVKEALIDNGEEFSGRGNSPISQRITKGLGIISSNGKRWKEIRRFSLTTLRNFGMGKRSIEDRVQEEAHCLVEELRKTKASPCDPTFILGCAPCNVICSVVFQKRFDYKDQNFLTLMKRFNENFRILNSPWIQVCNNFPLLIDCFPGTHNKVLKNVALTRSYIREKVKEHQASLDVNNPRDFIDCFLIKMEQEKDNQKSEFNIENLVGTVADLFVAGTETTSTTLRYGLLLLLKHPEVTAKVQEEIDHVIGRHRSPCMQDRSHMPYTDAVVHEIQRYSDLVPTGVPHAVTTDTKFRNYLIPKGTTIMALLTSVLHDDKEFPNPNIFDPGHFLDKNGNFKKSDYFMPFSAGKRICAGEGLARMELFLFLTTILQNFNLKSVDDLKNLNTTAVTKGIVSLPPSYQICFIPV
I'd be grateful if you could share measured CYP450 Panel 2C8 for these entries.
Numbers only, in %.

Below: 3 compounds and their reported CYP450 Panel 2C8.
[[record]]
compound = "Cn1cnc2c(F)c(Nc3ccc(Br)cc3Cl)c(C(=O)NOCCO)cc21 [Reference 1, Selumetinib]"
measurementtarget = "UniProt:P10632"
numericreadout = 18.9

[[record]]
compound = "CNS(=O)(=O)Nc1cccc(Cc2c(C)c3ccc(OC(=O)N(C)C)cc3oc2=O)c1F [Reference 7]"
measurementtarget = "UniProt:P10632"
numericreadout = 14.4

[[record]]
compound = "O=c1c(O)c(-c2ccc(O)c(O)c2)oc2cc(O)cc(O)c12"
measurementtarget = "UniProt:P10632"
numericreadout = 93.1


What does the data say about its CYP450 Panel 2C8? Entry: CNS(=O)(=O)Nc1cccc(Cc2c(CN(C)C)c3ccc(OC(=O)N(C)C)cc3oc2=O)c1F 4

====

test: Plasma Stability (% remaining @2 hour); format: in vitro ADME; conditions: CD-1 Mouse; 2 μM
Output yes (1) for records whose Plasma stability, % Remaining @2 hour is lower than 60%, no (0) for records at or above 60%.

[[record]]
compound = "CNS(=O)(=O)Nc1cccc(Cc2c(C)c3ccc(OC(=O)N(C)C)cc3oc2=O)c1F [Reference 7]"
answerlabel = "yes (1)"


A record lists CNS(=O)(=O)Nc1nccc(Cc2c(C)c3ccc(Oc4ncccn4)cc3oc2=O)c1F [Reference 2] . Is its Plasma stability, % Remaining @2 hour below 60%? no (0)

Please determine if Cn1cnc2c(F)c(Nc3ccc(Br)cc3Cl)c(C(=O)NOCCO)cc21 [Reference 1, Selumetinib] is below 60% in terms of Plasma stability, % Remaining @2 hour. no (0)

Please let me know if CC(C)[N+](C)(CCOC(=O)C1c2ccccc2Oc2ccccc21)C(C)C shows Plasma stability, % Remaining @2 hour below 60%. yes (1)

Does this compound meet the criterion Plasma stability, % Remaining @2 hour < 60%? CNS(=O)(=O)Nc1cccc(Cc2c(CN(C)C)c3ccc(OC(=O)N(C)C)cc3oc2=O)c1F no (0)

Please let me know if CC[C@H](C)C(=O)O[C@H]1C[C@@H](C)C=C2C=C[C@H](C)[C@H](CC[C@@H]3C[C@@H](O)CC(=O)O3)[C@H]21 shows Plasma stability, % Remaining @2 hour below 60%. yes (1)

====

assay: Single dose PK profile in Colon-26 tumor bearing mice; type: in vivo; details: female, mouse, iv, 25 mg/kg; plasma; 25 mpk i.v.; 2nd of two values in cell
reportedMetric: half-life (min)
Answers are plain numbers, in min.

Which value of half-life has been reported for CNS(=O)(=O)Nc1cccc(Cc2c(CN(C)C)c3ccc(OC(=O)N(C)C)cc3oc2=O)c1F in the records? 143

====

experiment: Plasma Stability (% remaining @2 hour); format: in vitro ADME; details: SD Rat; 2 μM
reportedMetric: Plasma stability, % Remaining @2 hour (%)
One number for each entry, in %.

Below, each entry is followed by its recorded Plasma stability, % Remaining @2 hour result.
[[record]]
molecule = "CC[C@H](C)C(=O)O[C@H]1C[C@@H](C)C=C2C=C[C@H](C)[C@H](CC[C@@H]3C[C@@H](O)CC(=O)O3)[C@H]21"
numericreadout = 0.6

[[record]]
molecule = "CNS(=O)(=O)Nc1nccc(Cc2c(C)c3ccc(Oc4ncccn4)cc3oc2=O)c1F [Reference 2]"
numericreadout = 99.8

[[record]]
molecule = "CC(C)[N+](C)(CCOC(=O)C1c2ccccc2Oc2ccccc21)C(C)C"
numericreadout = 92.6

[[record]]
molecule = "CNS(=O)(=O)Nc1cccc(Cc2c(C)c3ccc(OC(=O)N(C)C)cc3oc2=O)c1F [Reference 7]"
numericreadout = 77.3

[[record]]
molecule = "Cn1cnc2c(F)c(Nc3ccc(Br)cc3Cl)c(C(=O)NOCCO)cc21 [Reference 1, Selumetinib]"
numericreadout = 94.9


Given the entry CNS(=O)(=O)Nc1cccc(Cc2c(CN(C)C)c3ccc(OC(=O)N(C)C)cc3oc2=O)c1F , report its measured Plasma stability, % Remaining @2 hour. 106.4

====

Recorded below: pIC50, system hERG Channel (Homo sapiens, UniProt Q12809).
Give bare numbers, as −log10 of the molar value.

[[record]]
molecule = "CNS(=O)(=O)Nc1cccc(Cc2c(CN(C)C)c3ccc(OC(=O)N(C)C)cc3oc2=O)c1F"
measurementtarget = "hERG Channel (Homo sapiens, UniProt Q12809)"
numericreadout = 4.58


Now consider a different molecule.
Form field: reported pIC50 of CNS(=O)(=O)Nc1cccc(Cc2c(C)c3ccc(OC(=O)N(C)C)cc3oc2=O)c1F [Reference 7] 4.54

====

experiment: Single dose PK profile in Colon-26 tumor bearing mice; assay type: in vivo; conditions: female, mouse, po, 25 mg/kg; plasma; 25 mpk p.o.; 2nd of two values in cell; read-out: Cmax
reportedMetric: Cmax (ng/mL)
Answers are plain numbers, in ng/mL.

Record request: Cmax value, item CNS(=O)(=O)Nc1cccc(Cc2c(CN(C)C)c3ccc(OC(=O)N(C)C)cc3oc2=O)c1F 2320

====

experiment: Single dose PK profile in Colon-26 tumor bearing mice; assay type: in vivo; conditions: female, mouse, po, 25 mg/kg; plasma; 25 mpk p.o.; 2nd of two values in cell
reportedMetric: AUC(0-inf)

Given CNS(=O)(=O)Nc1cccc(Cc2c(CN(C)C)c3ccc(OC(=O)N(C)C)cc3oc2=O)c1F [Compound A] , state its recorded AUC(0-inf). 3650 ng·h/mL
